Data credit: patent US9980943B2

# Test system: β-galactosidase in CMV-LacZ C2C12 myotubes
# TEST_SUMMARY: CMV-LacZ secondary screen in C2C12 myotubes (β-Gal stabilizing assay)
# Type: cell-based, mouse
# TEST_CONDITIONS: 0.5 uM; C2C12 CMV-LacZ myotubes; fold relative to DMSO
Lab note - cut at 1 for CMV-LACZ in Myotubes, signal relative to DMSO: True if strictly below, False if not.

# example entries with known answers
Cc1nnc(SCC(=O)c2ccc(Br)cc2)s1 = True
CNC(=O)CSc1nnc(-c2ccc3c(c2)OCO3)n1C = True
COc1cccc(C(=O)COc2ccc3ccc(=O)oc3c2)c1 = True
N#C/C(=C/c1ccc(N2CCOCC2)o1)C(=O)Nc1ccccc1 = True
COc1ccccc1CC(=O)Nc1cc(S(=O)(=O)N2CCOCC2)ccc1N1CCOCC1 = True
Cn1c(-c2ccccc2)cc2ccccc21 = True
CC(=O)Nc1ccc(NC(=O)C/C(C)=N/NC(=O)COc2cc(C)c(Br)cc2Br)cc1 = False
C#CC1(O)CCC2C3CCC4=C/C(=N/OCC(=O)NCC(=O)NC(C(=O)O)C(C)C)CC[C@]4(C)C3CC[C@@]21C (stereo partly drawn) = True
CCOC(=O)c1cc(C(=O)OCC)c(=O)[nH]c1SCc1ccccc1 = False
O=CN1CCN(C(=O)CC(c2ccccc2)c2cc(Br)ccc2O)CC1 (stereo not drawn) = False

Challenge: Hello, is CMV-LACZ in Myotubes, signal relative to DMSO of the following compound strictly smaller than 1? "Cc1cccc(NCC(=O)N/N=C\c2ccccn2)c1"
Response given: False

Challenge: Strictly below 1 in CMV-LACZ in Myotubes, signal relative to DMSO? "CCOC(=O)c1nnn(-c2nonc2OC)c1-c1ccccc1"
Response given: True
